Provenance of the data: PubChem BioAssay AID488846

Collected max response values appear next to each entry.
Molecular target: Alpha-galactosidase A (Homo sapiens) (UniProt P06280)
Sequence (P06280 whole entry, looked up): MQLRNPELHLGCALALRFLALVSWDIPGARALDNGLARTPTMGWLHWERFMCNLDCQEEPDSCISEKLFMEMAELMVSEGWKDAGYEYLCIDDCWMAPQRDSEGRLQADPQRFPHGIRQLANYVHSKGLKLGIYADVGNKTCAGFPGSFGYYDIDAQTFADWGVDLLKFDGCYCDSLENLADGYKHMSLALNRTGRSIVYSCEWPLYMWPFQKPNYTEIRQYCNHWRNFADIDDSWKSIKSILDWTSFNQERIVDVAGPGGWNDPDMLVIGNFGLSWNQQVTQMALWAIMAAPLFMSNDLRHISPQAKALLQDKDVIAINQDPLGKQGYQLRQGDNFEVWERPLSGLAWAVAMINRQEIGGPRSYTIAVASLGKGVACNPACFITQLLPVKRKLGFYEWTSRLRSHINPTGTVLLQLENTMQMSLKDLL
Assay: qHTS Assay for Inhibitors and Activators of N370S glucocerebrosidase as a Potential Chaperone Treatment of Gaucher Disease: Alpha-Galactosidase Counterscreen for Probe SAR
Details: purified human alpha-galactosidase, 4-MU-alpha-Gal fluorescence
Description: NIH Chemical Genomics Center [NCGC] NIH Molecular Libraries Probe Production Centers Network [MLPCN] […] NCGC Assay Protocol Summary: This is a fluorogenic enzyme assay with 4-Methylumbelliferyl alpha-D-galactopyranoside as the substrate and human […] as the enzyme preparation. […] This fluorescence which can be detected by a standard fluorescence plate reader. […] In the AC50 values were determined from concentration-response data modeled with the standard Hill equation. […]
property_name: max response (%)

[
  {
    "compound": "O=C(NC1CCCCC1)c1cnn2c1NC(=C1CC1)C=C2C(F)F",
    "test_target": "Alpha-galactosidase A (Homo sapiens) (UniProt P06280)",
    "recorded_number": -4.62
  },
  {
    "compound": "C=C1C=C(C(F)F)n2ncc(C(=O)Nc3ccc(C(C)CC)cc3)c2N1 (centres undefined)",
    "test_target": "Alpha-galactosidase A (Homo sapiens) (UniProt P06280)",
    "recorded_number": -7.63
  },
  {
    "compound": "O=C(Nc1ccccc1Sc1ccccc1)c1cnn2c1NC(=C1CC1)C=C2C(F)(F)F",
    "test_target": "Alpha-galactosidase A (Homo sapiens) (UniProt P06280)",
    "recorded_number": -8.17
  },
  {
    "compound": "O=C(Nc1ccccc1Sc1ccccc1)c1cnn2c1NC(=C1CC1)C=C2C(F)F",
    "test_target": "Alpha-galactosidase A (Homo sapiens) (UniProt P06280)",
    "recorded_number": -8.53
  }
]
